Tested on: HUV-EC-C cells; VEGF
MEASUREMENT PROTOCOL: HUVEC-VEGF 3H-thymidine incorporation assay
Assay type: cell-based, human
EXPERIMENTAL SETUP: Homo sapiens
pIC50: −log10 of the molar value.
Overview of recorded pIC50 for various compounds

Incoming: Output measured pIC50 for this item: Cc1c[nH]c(C=C2C(=O)Nc3ccc(Cl)cc32)c1CCC(=O)O [IN-027]
Outgoing: > 7.15

Incoming: Output measured pIC50 for this item: CNC(=O)CCc1c(C=C2C(=O)Nc3ccccc32)[nH]c2c1CCCC2 [IN-012]
Outgoing: > 7.52

Further cases:
Incoming: Output measured pIC50 for this item: Cc1c[nH]c(C=C2C(=O)Nc3cccc(C)c32)c1CCC(=O)O [IN-029]
Outgoing: > 7.15
